- Measured on: Human PDE10A enzyme (Homo sapiens, UniProt Q9Y233)
- Construct: Human PDE10A enzyme was generated from Sf9 or COS-7 cells transfected with the full-length gene; His-tag; made in house; host or cells: Sf9 or COS-7 cells
- Sequence (Q9Y233 267-1055): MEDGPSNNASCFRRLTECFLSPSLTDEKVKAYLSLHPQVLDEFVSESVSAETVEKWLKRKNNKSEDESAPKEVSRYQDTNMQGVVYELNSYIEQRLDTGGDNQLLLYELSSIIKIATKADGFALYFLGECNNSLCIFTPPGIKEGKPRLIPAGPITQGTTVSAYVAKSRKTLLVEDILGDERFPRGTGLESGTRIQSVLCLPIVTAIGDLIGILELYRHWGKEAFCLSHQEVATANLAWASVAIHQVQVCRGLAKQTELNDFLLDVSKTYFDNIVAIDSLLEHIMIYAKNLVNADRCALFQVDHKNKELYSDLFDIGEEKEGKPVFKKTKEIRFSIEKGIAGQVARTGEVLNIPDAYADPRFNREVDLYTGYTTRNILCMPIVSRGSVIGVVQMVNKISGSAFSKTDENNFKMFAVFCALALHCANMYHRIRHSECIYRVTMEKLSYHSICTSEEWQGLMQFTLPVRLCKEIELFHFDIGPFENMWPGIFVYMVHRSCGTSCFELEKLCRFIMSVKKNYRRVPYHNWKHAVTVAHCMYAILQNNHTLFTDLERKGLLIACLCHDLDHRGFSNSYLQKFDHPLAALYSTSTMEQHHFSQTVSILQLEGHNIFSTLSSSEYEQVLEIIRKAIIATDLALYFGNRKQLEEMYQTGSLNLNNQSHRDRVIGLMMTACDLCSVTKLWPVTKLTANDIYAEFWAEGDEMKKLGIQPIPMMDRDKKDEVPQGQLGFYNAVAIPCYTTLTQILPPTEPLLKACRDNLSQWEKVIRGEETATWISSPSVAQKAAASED
- Protocol details: PDE enzyme inhibition, SPA (Scintillation Proximity Assay)
- Format: biochemical
- Condition description: Table 2; human PDE10A, [3H]cGMP substrate
Endpoint name: IC50

Guide cases for IC50, answers given:
compound="COc1cn(-c2cccc(-c3cnn(C)c3)c2F)nc(-c2ccnn2-c2ccccc2)c1=O [Example 113]" reading="< 10 nM"
compound="COc1cn(-c2ccc(N3CCC(F)(F)CC3)cc2F)nc(-c2ccnn2-c2ccccc2)c1=O [Example 106]" reading="< 10 nM"
compound="COc1cn(-c2ccc(N3CCOC3=O)cc2F)nc(-c2ccnn2-c2ccccc2)c1=O [Example 109]" reading="< 10 nM"

API: the following record is the query input.
Lab book: IC50 of COc1cn(-c2ccc(N3CCC(C)(O)CC3)cc2F)nc(-c2ccnn2-c2ccccc2)c1=O [Example 186] noted as < 10 nM

###

Here the recorded melting point is given for each entry.

chem_smiles=O=c1c(Br)cn(-c2cccc(C(F)(F)F)c2)nc1-c1ccnn1-c1ccccc1 endpoint_name="melting point" reading="145 to 146 °C"
chem_smiles=O=c1ccn(-c2cccc(C(F)(F)F)c2)nc1-c1cn(C(c2ccccc2)(c2ccccc2)c2ccccc2)nc1-c1ccccc1 endpoint_name="melting point" reading="216 to 218 °C"
chem_smiles=COc1cn(-c2ccc(N3CCC3=O)cc2F)nc(-c2ccnn2-c2ccccc2)c1=O endpoint_name="melting point" reading="189 to 194 °C"
chem_smiles=COc1ccc(-n2ccc(=O)c(-c3ccnn3-c3ccccc3)n2)cc1 endpoint_name="melting point" reading="179 to 180 °C"
chem_smiles=COc1cn(-c2ccc(N3CCOCC3)cc2F)nc(-c2ccnn2-c2ccccc2)c1=O endpoint_name="melting point" reading="226 to 228 °C"
chem_smiles=O=c1ccn(-c2cccc(S(=O)(=O)c3nc4ccccc4[nH]3)c2)nc1-c1ccnn1-c1ccccc1 endpoint_name="melting point" reading="160 to 161 °C"
chem_smiles=Cc1ccc(-n2ccc(=O)c(-c3ccnn3-c3ccccc3)n2)cc1 endpoint_name="melting point" reading="182 to 183 °C"

Quick note, melting point for `O=c1ccn(-c2cccc(Cl)c2)nc1-c1ccnn1-c1ccccc1` landed at 146 to 147 °C

###

- Measured on: Human PDE10A enzyme (Homo sapiens, UniProt Q9Y233)
- Construct: Human PDE10A enzyme was generated from Sf9 or COS-7 cells transfected with the full-length gene; His-tag; made in house; host or cells: Sf9 or COS-7 cells
- Protocol details: PDE enzyme inhibition, SPA (Scintillation Proximity Assay)
- Assay type: biochemical
- Condition description: Table 2; human PDE10A, [3H]cGMP substrate
pIC50: −log10 of the molar value.
Measured pIC50, listed per entry for reference.

chem_smiles=COc1cn(-c2ccc(-n3cc(F)c(F)c3)cc2F)nc(-c2ccnn2-c2ccccc2)c1=O reading="> 8.00"

// `COc1cn(-c2ccc(-c3cnn(C(F)F)c3)cc2F)nc(-c2ccnn2-c2ccccc2)c1=O` : pIC50 value = > 8.00

The compound listed as `COc1cn(-c2ccc(-n3ccnc3)cc2F)nc(-c2ccnn2-c2ccccc2)c1=O` shows pIC50 equal to > 8.00
